# assay-target: T1, 6XHis-tagged E. coli BamAp5 (β-barrel domain and fifth POTRA domain, residues 344-810) (E. coli, UniProt P0A940 344-810)
# T1 construct: Monomer by DLS; also called recombinant form of BamA
# procedure-summary: other fluorescence titration; intrinsic fluorescence of 3.7 x 10^-6 M BamAp5 (excitation 280 nm, emission 308 nm) with Mag-2 from 2 to 18.64 µM; 20 mM Tris-HCl pH 8.4, 0.2% triton, 20°C; one site-specific binding fit; duplicate
# condition-set: both partners purified
value-type: Kd (nM)

>>> recorded_measurement("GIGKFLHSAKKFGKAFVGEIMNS (peptide, UniProt P11006 83-105, looked up, Magainin-2 (Mag-2), antimicrobial peptide of the African clawed frog Xenopus laevis; cut product of the magainins precursor; the docking text numbers it to Ser23; also called Mag-2; Maganin-2) [Magainin-2]")
3.5
